# TESTED_SYSTEM: T1, human CD39 (cellular) (human, UniProt P49961 1-510)
# T1 construct: Same protein on engineered CHO cells and on cells that express it endogenously; also called hCD39; cellular CD39
# T1 sequence: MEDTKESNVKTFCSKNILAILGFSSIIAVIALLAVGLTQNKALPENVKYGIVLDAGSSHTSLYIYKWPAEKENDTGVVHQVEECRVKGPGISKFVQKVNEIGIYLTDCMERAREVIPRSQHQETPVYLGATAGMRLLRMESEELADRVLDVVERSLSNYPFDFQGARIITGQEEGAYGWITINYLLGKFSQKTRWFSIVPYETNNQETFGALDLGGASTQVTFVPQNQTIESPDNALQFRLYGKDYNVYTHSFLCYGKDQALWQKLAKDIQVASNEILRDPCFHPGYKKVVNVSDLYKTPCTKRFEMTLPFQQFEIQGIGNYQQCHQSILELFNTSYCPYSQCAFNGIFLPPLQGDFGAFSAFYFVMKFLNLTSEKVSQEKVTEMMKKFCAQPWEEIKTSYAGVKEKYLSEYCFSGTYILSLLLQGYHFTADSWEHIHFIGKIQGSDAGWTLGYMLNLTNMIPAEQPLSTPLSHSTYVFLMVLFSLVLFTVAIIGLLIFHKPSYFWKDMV
# ASSAY_NAME: flow cytometry, 100 nM IgG, MFI on CHO-hCD39 / MFI on parental CHO;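 further: cells exposed to IgG for 30 min on ice in PBS, bound antibody then revealed with a fluorescent goat anti-human IgG secondary (20 min, on ice)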
Cell Binding (FOB) vs 1000 fold over background: at or above is 1, below is 0.

Examples from the recorded data:
1) 31873 (antibody, human IgG4 S228P, kappa, V domains shown) VH: QVQLVQSGAEVKKPGSSVKVSCKASGGTFSKYGISWVRQAPGQGLEWMGSIIPEFGIANYAQKFQGRVTITADESTSTAYMELSSLRSEDTAVYYCARESGGYRDHRLGVWGQGTMVTVSS VL: EIVMTQSPATLSVSPGERATLSCRASQSVGSNLAWYQQKPGQAPRLLIYGASTRASGIPARFSGSGSGTEFTLTISSLQSEDFAVYYCQQYLLWPLTFGGGTKVEIKR; 1
2) 27597 (antibody, human IgG4 S228P, kappa, V domains shown) VH: QVQLVQSGAEVKKPGSSVKVSCKASGGTFSSYAISWVRQAPGQGLEWMGSIIPIFGTANYAQKFQGRVTITADESTSTAYMELSSLRSEDTAVYYCAREGRGYDSSRYYKFWFDPWGQGTLVTVSS VL: EIVLTQSPATLSLSPGERATLSCRASQSVSSYLAWYQQKPGQAPRLLIYDASNRATGIPARFSGSGSGTDFTLTISSLEPEDFAVYYCQQFVLWPRTFGGGTKVEIKR; 0
3) 31429 (antibody, V domains shown) VH: QVQLVQSGAEVKKPGASVKVSCKASGYTFVSYFMHWVRQAPGQGLEWMGSINPRGGSTSYAQKFQGRVTMTRDTSTSTVYMELSSLRSEDTAVYYCARGKREGGTEYLRHWGQGTLVTVSS VL: EIVLTQSPGTLSLSPGERATLSCRASQYVSSSYLAWYQQKPGQAPRLLIYYASNRATGIPDRFSGSGSGTDFTLTISRLEPEDFAVYYCQQYHSGITFGGGTKVEIK; 1
4) 31414 (antibody, human IgG4 S228P, kappa, V domains shown) VH: QVQLVQSGAEVKKPGASVKVSCKASGYTFKSYEMHWVRQAPGQGLEWMGRINPSVGSTWYAQKFQGRVTMTRDTSTSTVYMELSSLRSEDTAVYYCARGKREGGTEYLRNWGQGTLVTVSS VL: EIVLTQSPGTLSLSPGERATLSCRASQSVSSSYLAWYQQKPGQAPRLLIYGASSRATGIPDRFSGSGSGTDFTLTISRLEPEDFAVYYCQQYHSYITFGGGTKVEIKR; 1

Alright, here's another binder for you.
## Task API: above_or_equal(metric=Cell Binding (FOB), cutoff=1000 fold over background) for item 31418 (antibody, human IgG4 S228P, kappa, V domains shown) VH: QVQLVQSGAEVKKPGASVKVSCKASGYTFKSYEMHWVRQAPGQGLEWMGRINPSGGSTWYAQKFQGRVTMTRDTSTSTVYMELSSLRSEDTAVYYCARGKREGGTEYLRHWGQGTLVTVSS VL: EIVLTQSPGTLSLSPGERATLSCRASQSVSSSYLAWYQQKPGQAPRLLIYGASSRATGIPDRFSGSGSGTDFTLTISRLEPEDFAVYYCQQYYFYITFGGGTKVEIKR
## Result 1
